Cited source: PubChem BioAssay (NCATS)

Target: ATP-dependent 6-phosphofructokinase (Trypanosoma brucei brucei)
Test: qHTS Validation Assay to Find Inhibitors of T. brucei phosphofructokinase (AID 485368)
Conditions: T. brucei PFK enzyme assay, qHTS 7-point titration; series mostly up to 57.5 µM
Records with an inconclusive call do not appear. The source made the active and inactive calls. Calls come from the whole dose curve; as a rule, active = well fitted inhibition curve with a large enough effect; inconclusive = small, poorly fitted or top-dose-only effect, or effect the other way; inactive = flat fitted curve, though single readings scatter.
Answer with one of the outcomes class 1 for active, class 0 for inactive

Answer briefly: the call reported for `O=C1C(SCCO)=C(SCCO)C(=O)c2ccccc21` in this assay.
class 1

Likewise for `C[C@@H](CN1CCC(Cc2ccccc2)CC1)[C@@H](O)c1ccc(O)cc1` ?
class 0

Same question, `CN(C)C(N)=NCCC[C@H](N)C(=O)O` this time
class 0

Try this compound next: `O=C(O)c1cc(=O)c2c(Cl)cc(Cl)cc2[nH]1`
class 0

Another: `Cn1cc(C2=C(c3ccc(Cl)cc3Cl)C(=O)NC2=O)c2ccccc21`
class 0

How about this compound: `O=C(O)[C@@H]1C[C@H](C(=O)O)N1`
class 0

Now consider `COc1cc(SC)ccc1C(=O)N1CCC(Cc2ccccc2)CC1` and answer again.
class 0

`Oc1cc(O)cc(/C=C/c2ccc(O)c(O)c2)c1` , same question.
class 1

Input `CCCCCCCC/C=C\CCCCCCCC(=O)NCCO`
class 0

For `C[N+]1(C)CCC(OC(=O)C(c2ccccc2)c2ccccc2)CC1` then?
class 0

And the next one, CSc1ccccc1N1CCN(CCCCCC(=O)NC2CCCc3ccccc32)CC1 (centres undefined) ?
class 0

// query: S=C(S)OC1CC2CC1C1CCCC21 (centres undefined)
class 0

What about `N#C/C(=C\c1ccc(O)c(O)c1)C(=O)NCc1ccccc1` ?
class 1

And for `NC(=S)NCCC[C@H](N)C(=O)O` ?
class 1

Next compound: O=C(O)CC1CCCc2ccccc2C1O (centres undefined)
class 0

# iterate: `O=C(Nc1cccc(C(=O)Nc2ccc(S(=O)(=O)O)c3cc(S(=O)(=O)O)cc(S(=O)(=O)O)c23)c1)Nc1cccc(C(=O)Nc2ccc(S(=O)(=O)O)c3cc(S(=O)(=O)O)cc(S(=O)(=O)O)c23)c1`
class 1

Also, `COc1cccc(C(=O)NCCN2CCN(c3ccc(Cl)cc3)CC2)c1` please.
class 0

Same lookup for `NS(=O)(=O)C#Cc1ccccc1` , please.
class 0

Next: `COc1ccccc1N1CCN(CCN(C(=O)c2ccc(I)cc2)c2ccccn2)CC1`
class 0

Also CN1C2CC(OC(=O)[C@H](CO)c3ccccc3)CC1C1OC12 (some centres undefined) , if possible.
class 0

Now consider `NC(=O)C(=O)O` .
class 0

Query `CCCCCCCCc1ccc(-c2ccc(C(=O)O)cc2)cc1` next
class 0

Try this compound too: `N#C/C(=C\c1ccc(O)c(O)c1)C(=O)c1ccc(O)c(O)c1`
class 1

Next record, please: `NCCSSCCN`
class 0
